Data provenance is patent US20070135490A1.

Target: human beta-2 receptor (Homo sapiens, UniProt P07550)
Construct: expressed in transfected cells; host or cells: Chinese hamster ovary cells (whole cells or membranes derived from them)
Sequence (P07550 whole entry): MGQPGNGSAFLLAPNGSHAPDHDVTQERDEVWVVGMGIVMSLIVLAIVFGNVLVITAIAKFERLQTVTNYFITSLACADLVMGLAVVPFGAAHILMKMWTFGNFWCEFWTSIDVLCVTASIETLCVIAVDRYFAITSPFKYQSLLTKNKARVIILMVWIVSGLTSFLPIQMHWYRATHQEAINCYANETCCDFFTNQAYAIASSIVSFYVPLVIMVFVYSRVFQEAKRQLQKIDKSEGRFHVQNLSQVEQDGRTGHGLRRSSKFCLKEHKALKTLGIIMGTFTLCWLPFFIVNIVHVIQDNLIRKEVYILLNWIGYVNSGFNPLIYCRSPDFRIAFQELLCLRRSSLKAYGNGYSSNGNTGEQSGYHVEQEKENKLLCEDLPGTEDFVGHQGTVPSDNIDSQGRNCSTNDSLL
Assay: Chinese hamster ovary cells co-expressing the human receptor with a reporter gene, cAMP measurement in whole cells or membranes (Method 2)
Type: cell-based
Conditions: CHO cells or membranes, read-out: pEC50 at the human beta-2 receptor (converted)
observation.type: EC50

What does the record list as EC50 for Cc1cc(C)cc(COCCOCc2cccc(CCNC[C@H](O)c3ccc(O)c(CO)c3)c2)c1 [Example 16] ?
< 1000 nM

What does the record list as EC50 for OCc1cc([C@@H](O)CNCCc2cccc(COCCCc3cccc(O)c3)c2)ccc1O [Example 28] ?
< 1000 nM

What does the record list as EC50 for C[C@@H](OCc1cccc(CCNC[C@H](O)c2ccc(O)c(CO)c2)c1)c1ccccc1 [Example 44] ?
< 1000 nM

----------
Target: human beta-2 receptor (Homo sapiens, UniProt P07550)
Construct: expressed in transfected cells; host or cells: Chinese hamster ovary cells (whole cells or membranes derived from them)
Experiment: Chinese hamster ovary cells co-expressing the human receptor with a reporter gene, cAMP measurement in whole cells or membranes (Method 2)
Format: cell-based
Settings: CHO cells or membranes, read-out: pEC50 at the human beta-2 receptor (converted)
observation.type: EC50

What does the record list as EC50 for NC(=O)c1ccc(COCc2cccc(CCNC[C@H](O)c3ccc(O)c(CO)c3)c2)cc1 ?
< 1000 nM

What does the record list as EC50 for CC(OCCOCc1cccc(CCNC[C@H](O)c2ccc(O)c(CO)c2)c1)c1ccccc1 (some centres unmarked) ?
< 1000 nM

What does the record list as EC50 for CS(=O)(=O)c1ccc(COCc2cccc(CCNC[C@H](O)c3ccc(O)c(CO)c3)c2)cc1 ?
< 1000 nM

What does the record list as EC50 for NS(=O)(=O)c1cccc(CCCOCc2cccc(CCNC[C@H](O)c3ccc(O)c(CO)c3)c2)c1 ?
< 1000 nM

What does the record list as EC50 for N#Cc1ccc(CCCOCc2cccc(CCNC[C@H](O)c3ccc(O)c(CO)c3)c2)cc1 ?
< 1000 nM

What does the record list as EC50 for N#Cc1cccc(COCc2cccc(CCNC[C@H](O)c3ccc(O)c(CO)c3)c2)c1 ?
< 1000 nM

What does the record list as EC50 for N#Cc1cccc(CCCOCc2cccc(CCNC[C@H](O)c3ccc(O)c(CO)c3)c2)c1 ?
< 1000 nM

What does the record list as EC50 for NC(=O)c1cccc(COCCOCc2cccc(CCNC[C@H](O)c3ccc(O)c(CO)c3)c2)c1 ?
< 1000 nM

----------
Target: human beta-2 receptor (Homo sapiens)
Construct: expressed in transfected cells; host or cells: Chinese hamster ovary cells (whole cells or membranes derived from them)
Assay: Chinese hamster ovary cells co-expressing the human receptor with a reporter gene, cAMP measurement in whole cells or membranes (Method 2)
Format: cell-based
Details: CHO cells or membranes, read-out: pEC50 at the human beta-2 receptor (converted)
observation.type: EC50

What does the record list as EC50 for O=S(=O)(c1cccc(CCOCc2cccc(CCNC[C@H](O)c3ccc(O)c(CO)c3)c2)c1)C1CCCC1 [Example 60] ?
< 1 µM

What does the record list as EC50 for C[C@H](OCc1cccc(CCNC[C@H](O)c2ccc(O)c(CO)c2)c1)c1ccccc1 [Example 45] ?
< 1 µM

What does the record list as EC50 for OCc1cc([C@@H](O)CNCCc2cccc(COCCCCc3c(Cl)cccc3Cl)c2)ccc1O [Example 57] ?
< 1 µM

What does the record list as EC50 for OCc1cc([C@@H](O)CNCCc2cccc(COCCOc3ccccc3)c2)ccc1O [Example 38] ?
< 1 µM

What does the record list as EC50 for OCc1cc([C@@H](O)CNCCc2cccc(COCCc3ccc(F)cc3)c2)ccc1O [Example 40] ?
< 1 µM

What does the record list as EC50 for OCc1cc([C@@H](O)CNCCc2cccc(COCCCc3c(Cl)cccc3Cl)c2)ccc1O [Example 63] ?
< 1 µM

What does the record list as EC50 for O=S(=O)(c1ccc(CCCOCc2cccc(CCNC[C@H](O)c3ccc(O)c(CO)c3)c2)cc1)C1CCCC1 [Example 30] ?
< 1 µM

What does the record list as EC50 for OCc1cc([C@@H](O)CNCCc2cccc(COCc3c(Cl)cccc3Cl)c2)ccc1O [Example 47] ?
< 1 µM

What does the record list as EC50 for CS(=O)(=O)c1ccc(CCCOCc2cccc(CCNC[C@H](O)c3ccc(O)c(CO)c3)c2)cc1 [Example 23] ?
< 1 µM

What does the record list as EC50 for OCc1cc([C@@H](O)CNCCc2cccc(COCCOCc3cccc(OC(F)(F)F)c3)c2)ccc1O [Example 18] ?
< 1 µM

What does the record list as EC50 for N#Cc1cccc(COCCOCc2cccc(CCNC[C@H](O)c3ccc(O)c(CO)c3)c2)c1 [Example 13] ?
< 1 µM

What does the record list as EC50 for N#Cc1ccc(COCc2cccc(CCNC[C@H](O)c3ccc(O)c(CO)c3)c2)cc1 [Example 43] ?
< 1 µM

What does the record list as EC50 for NS(=O)(=O)c1cccc(COCc2cccc(CCNC[C@H](O)c3ccc(O)c(CO)c3)c2)c1 [Example 64, acetate] ?
< 1 µM

What does the record list as EC50 for NS(=O)(=O)c1cccc(CCCCOCc2cccc(CCNC[C@H](O)c3ccc(O)c(CO)c3)c2)c1 [Example 12] ?
< 1 µM

What does the record list as EC50 for N#Cc1ccc(CCCCOCc2cccc(CCNC[C@H](O)c3ccc(O)c(CO)c3)c2)cc1 [Example 21] ?
< 1 µM

What does the record list as EC50 for OCc1cc([C@@H](O)CNCCc2cccc(COCCOCc3cccc(O)c3)c2)ccc1O [Example 32] ?
< 1 µM

What does the record list as EC50 for OCc1cc([C@@H](O)CNCCc2cccc(COCCc3ccccc3F)c2)ccc1O [Example 41] ?
< 1 µM

What does the record list as EC50 for [O-][S+](c1cccc(COCCOCc2cccc(CCNC[C@H](O)c3ccc(O)c(CO)c3)c2)c1)C1CCCC1 (some centres unmarked) [Example 34] ?
< 1 µM

What does the record list as EC50 for OCc1cc([C@@H](O)CNCCc2cccc(COCCOCc3cccc(F)c3)c2)ccc1O [Example 15] ?
< 1 µM

What does the record list as EC50 for O=S(=O)(c1cccc(COCc2cccc(CCNC[C@H](O)c3ccc(O)c(CO)c3)c2)c1)C1CCCC1 [Example 35] ?
< 1 µM

What does the record list as EC50 for OCc1cc([C@@H](O)CNCCc2cccc(COCc3ccccc3F)c2)ccc1O [Example 48] ?
< 1 µM

What does the record list as EC50 for OCc1cc([C@@H](O)CNCCc2cccc(COCCc3ccccc3O)c2)ccc1O [Example 25] ?
< 1 µM

What does the record list as EC50 for OCc1cc([C@@H](O)CNCCc2cccc(COCCOCc3c(Cl)cccc3Cl)c2)ccc1O [Example 14] ?
< 1 µM

What does the record list as EC50 for OCc1cc([C@@H](O)CNCCc2cccc(COCc3ccc(O)cc3)c2)ccc1O [Example 26] ?
< 1 µM

What does the record list as EC50 for Cc1cc(C)cc(COCc2cccc(CCNC[C@H](O)c3ccc(O)c(CO)c3)c2)c1 [Example 46] ?
< 1 µM

What does the record list as EC50 for O=S(=O)(c1cccc(CCCOCc2cccc(CCNC[C@H](O)c3ccc(O)c(CO)c3)c2)c1)C1CCCC1 [Example 31] ?
< 1 µM

What does the record list as EC50 for NC(=O)c1cccc(COCc2cccc(CCNC[C@H](O)c3ccc(O)c(CO)c3)c2)c1 [Example 53] ?
< 1 µM

What does the record list as EC50 for NS(=O)(=O)c1cccc(CCOCc2cccc(CCNC[C@H](O)c3ccc(O)c(CO)c3)c2)c1 [Example 55] ?
< 1 µM

What does the record list as EC50 for NC(=O)Nc1cccc(CCCCOCc2cccc(CCNC[C@H](O)c3ccc(O)c(CO)c3)c2)c1 [Example 58] ?
< 1 µM

What does the record list as EC50 for CS(=O)(=O)c1cccc(CCCCOCc2cccc(CCNC[C@H](O)c3ccc(O)c(CO)c3)c2)c1 [Example 62] ?
< 1 µM

What does the record list as EC50 for O=S(=O)(c1cccc(COCCOCc2cccc(CCNC[C@H](O)c3ccc(O)c(CO)c3)c2)c1)C1CCCC1 [Example 33] ?
< 1 µM

What does the record list as EC50 for OCc1cc([C@@H](O)CNCCc2cccc(COCCc3cccc(F)c3)c2)ccc1O [Example 39] ?
< 1 µM
